Data origin: the supplement of paper PMC12042874

procedure text: amyloid nucleation score (Sup35N fusion, yeast selection) (log enrichment); library NNK2; higher = more nucleation; inactive = no reads after selection;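 also: zero at mode of non-aggregating sequences after 7 days selection at 30°C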
outcome measure: amyloid nucleation score

>>> measured_result("GIIRSWNIRPLEMPKE")
0.176
>>> measured_result("VVMHQSAVCYEHEMTLVRRF")
0.027
>>> measured_result("IDHNTSRC")
0.023
>>> measured_result("EMNFKALLKGVNGFVWDGVF")
1.43
>>> measured_result("KTISNYVAGN")
"inactive"
>>> measured_result("RLYCQRFPRFENITIWELLL")
-1.71
>>> measured_result("LACLVIFMTVSDMDVLSGLF")
-0.39
>>> measured_result("LYTFGFSFLWKYSRFHV")
"inactive"
>>> measured_result("VWMDIRSYLVGGLLTAVPRD")
0.481
>>> measured_result("FYVVFLNGVLLDYNDDLYGI")
"inactive"

For SPACLNS the substance record lists amyloid nucleation score as 4.58

Short answer for FIDTLNYDWDIVLFWFLGEN : amyloid nucleation score was 0.021

GET /value?item= FFLLPLVRYELLSNVDAVPG &field=amyloid nucleation score returns 0.101

Documented amyloid nucleation score of WYSSGMTGIIRRVDKWCAFS : -0.939

substance VAVTLNFLIGVIGCRGILMG , amyloid nucleation score observed: 5.48

substance HWYTAMVYIFKRQD , amyloid nucleation score observed: 0.974

The measured amyloid nucleation score associated with CECVFFVQGVLRVGVLYDKF reads inactive

Entry RCKYWNTKCTTIYRGRVSYL , amyloid nucleation score reported as -0.733

amyloid nucleation score measured on VCSPIG = 0.063

* * *

procedure text: amyloid nucleation score (Sup35N fusion, yeast selection) (log enrichment); library NNK2; higher = more nucleation; inactive = no reads after selection
outcome measure: amyloid nucleation score

Example results:
>>> measured_result("IFHCGLLRALRFSSHLYWVG")
0.505
>>> measured_result("LRFRVLFVFPRDPW")
-0.918
>>> measured_result("SIIGVYLCFLSFRTNVLWKT")
-0.122
>>> measured_result("SSRVVVLNYATRRGGQVSGR")
0.496
>>> measured_result("VNYHLFVYAQWIVRKGFILL")
-0.78

So, RTWCDGGCPV ? Its amyloid nucleation score was 0.653

Form field amyloid nucleation score, entry SSTSLLNLPCWDRIFHTVRL : -0.429

Consider TYALVTRLFCFLVSEHWVTL . Its measured amyloid nucleation score is -0.047

// LLNVPGLVAYEIRGPMRYLF : amyloid nucleation score value = -0.519

The substance listed as WWLSGA shows amyloid nucleation score equal to 0.898

* * *

procedure text: amyloid nucleation score (Sup35N fusion, yeast selection) (log enrichment); library NNK3; higher = more nucleation; inactive = no reads after selection
outcome measure: amyloid nucleation score

The examples below pair each entry with its known result.
>>> measured_result("DGPTRLNLFNSLFVSLKRMY")
1.58
>>> measured_result("SVDCYCTKKTYMQWSGSVRH")
0.66
>>> measured_result("GCNGDRFRF")
-0.255
>>> measured_result("ERSLFAYMYNNGR")
"inactive"
>>> measured_result("SLKSPLRCFLILHSPALCLG")
"inactive"
>>> measured_result("KRMLCWFINKVIYLRYLWQV")
"inactive"
>>> measured_result("GIWCYAITLGFRPAGSTWDS")
1.02
>>> measured_result("GDFSSCL")
"inactive"
>>> measured_result("VFYFDSFRICSYVVLYGHMA")
0.601
>>> measured_result("VSLKYSTKKPWLKTDHPCWI")
"inactive"

// amyloid nucleation score lookup, substance = YYGFYTNYFMCGV , result: 2.77

Entry FYMASMCCWF — recorded amyloid nucleation score = inactive

Form: substance = ERSQKWVNF ; amyloid nucleation score = inactive

* * *

procedure text: amyloid nucleation score (Sup35N fusion, yeast selection) (log enrichment); library NNK1; higher = more nucleation; inactive = no reads after selection
Provide the reported amyloid nucleation score of each item.

Lookup result for FLVQNRRISEVIELWALLS ; measured amyloid nucleation score: -1.19

So, YVVLASVMLITYVRA ? Its amyloid nucleation score was 0.786

Documented amyloid nucleation score of KFILRYMAWTRVDAVVSKPY : -0.496

The reported value for LDTGVMMEIKICIHYRDCYD in terms of amyloid nucleation score is 1.84

Measured amyloid nucleation score, ELIHILDLVVTPGRFGRPVN : 2.58

The sequence listed as GNVLDFCPWLVGLLCHGGGV has a reported amyloid nucleation score of 0.149

The reported amyloid nucleation score of the sequence TTFSEVERLWGWSVFCNLST was 0.723

The recorded amyloid nucleation score for entry GLGWHFTL equals -0.407

* * *

procedure text: amyloid nucleation score (Sup35N fusion, yeast selection) (log enrichment); library NNK3; higher = more nucleation; inactive = no reads after selection
outcome measure: amyloid nucleation score

>>> measured_result("RSCYEVLRHGREL")
"inactive"
>>> measured_result("ITLRDVGGHGANLWEGMQFM")
"inactive"
>>> measured_result("GSRLAGLVVYDFSLSQWYFS")
2.84
>>> measured_result("ILIRHDAMNRYPQC")
"inactive"
>>> measured_result("LDTDGSICCCPRAIAHLL")
"inactive"
>>> measured_result("FAYVLFATFS")
-0.353

Short answer for ELSFPL : amyloid nucleation score was inactive

Memo: ECYTSCVMIYIIHCYKNLRL , reported amyloid nucleation score: inactive

Form: substance = CRMAKRLAVRTSLRRMFSES ; amyloid nucleation score = inactive

Summary for this substance, QEVAMRAISLSLPARWSVPC : amyloid nucleation score is inactive

The reported value for FSNLYLVMTNCPSRDPPVYT in terms of amyloid nucleation score is inactive

Entry TKADEHYESIYTLCCHFVSP ; amyloid nucleation score = inactive

The recorded amyloid nucleation score for ITSSVSFSRPYGVRGLLKKG is 0.002

For reference, reported amyloid nucleation score for HEISSICTRFWANSLIRMSC stands at inactive

amyloid nucleation score reported for this substance GRSLVYR : inactive

amyloid nucleation score recorded for this substance, DCGVVCSRNRNAEEEMLDSV , is inactive

Per the record, SMSSELCLGNRHYG has amyloid nucleation score of inactive

* * *

procedure text: amyloid nucleation score (Sup35N fusion, yeast selection) (log enrichment); library NNK1; higher = more nucleation; inactive = no reads after selection
outcome measure: amyloid nucleation score
Form rule: numeric answer, no unit written next to it.

The substance listed as KWSVSV has a reported amyloid nucleation score of -0.32

ILWLFSGAWLYYSVLYCL yielded amyloid nucleation score of -0.076

Lookup result for MKDVILRTWYLRQGEGWGAS ; measured amyloid nucleation score: 0.026

// SVGLTFNGGVYCSHVERTSW : amyloid nucleation score value = 1.93

GET /value?item= FFVLFEVYMVWFTEGFARLA &field=amyloid nucleation score returns -0.733

Briefly, amyloid nucleation score measured for FDLGHCIDSRRPGLCVMVLV : 0.035

Reported amyloid nucleation score of DCLRILDGQYRRRIDRALRV : 0.09

Reported amyloid nucleation score of LFIVPRRGARRYRVVITKSV : 0.003

Recorded result, AAVMCAIDLIGLNFGLGNWK , amyloid nucleation score: 7.82

* * *

procedure text: amyloid nucleation score (Sup35N fusion, yeast selection) (log enrichment); library NNK2; higher = more nucleation; inactive = no reads after selection
For each record, write down the corresponding amyloid nucleation score.
Please give only the number in your answer, with no unit.

Summary for this substance, NMDYDIKEQFLSRVPSPRES : amyloid nucleation score is -0.95

amyloid nucleation score for ILKPYCVCDLSNKLE is 0.199

The reported value for LTNCRIVLSLNQARVRIESI in terms of amyloid nucleation score is 0.218

Value of measured amyloid nucleation score for the entry QIHGVTFFSQRTGTCASEP : -0.875

// sample MLLYNESNANQLKRGSGRWL , its amyloid nucleation score was 0.156

Form field amyloid nucleation score, entry IRPSLGRR : 1.79

Just so you know, measured amyloid nucleation score for NSINRMVVQLVG came out at 3.9

Summary for this substance, TFNIGNELVT : amyloid nucleation score is -0.99

Short answer for TIWRCFLT : amyloid nucleation score was 0.685

What the record says about SLFCVPSSRKVLFLGRTVVV : amyloid nucleation score is 0.123

Reported amyloid nucleation score of TVSRLYEYWLLRMCIY : -0.413

So, LLSISCV ? Its amyloid nucleation score was 0.512

For this substance ( NFVKRV ), measured amyloid nucleation score is -0.509

The recorded amyloid nucleation score for entry IFGSLLNMIYMV equals 2.5

Quick note, amyloid nucleation score for ILSCVARGCYYTTL landed at -1.38

Lab book: amyloid nucleation score of ASGCLNLVCQNVCTSRSTNV noted as 8.95

Reported amyloid nucleation score of VHYMHLSRLLKLHAEPLAFW : -0.02

Short answer for WVTTNMCYTHQFMFGANLVV : amyloid nucleation score was 0.276

Measured amyloid nucleation score, FHLMFCGSL : -0.818

Quick note, amyloid nucleation score for HSKTYLKGRLCNSLVWSYES landed at 0.712

Kindly note the recorded amyloid nucleation score for WSCQESIVRSRDDYSRFRCG , which is 3.42

Looking up TVAWTSRLFSLAGLLHFDR , I found its amyloid nucleation score recorded as 4.82

Query IRCRVRK yields amyloid nucleation score of 0.484

So, IFIMQTHFTGRVCPSSVKLP ? Its amyloid nucleation score was 4.99

amyloid nucleation score reading for SVWCWDHSILLGFNLCNRKM : 6.65

For record GRYILFFSRSEFDFKIVQSV the listed amyloid nucleation score is 2.23

get_value(item= ITLASDFACLFGVIDYSWIV , readout=amyloid nucleation score) returns 0.143

Per the records, this substance ( VTRSLLLCHFSTCCFSALTW ) has amyloid nucleation score equal to -0.086

Short answer for DRACPYLWVPLRLRGLDTII : amyloid nucleation score was -1.32

The substance listed as TKAYNTFLRPETVRLSESTK shows amyloid nucleation score equal to 0.9

// field: amyloid nucleation score; key: SVVMTIHNIGWMLRCSGIVY ; value = -0.823

Data point: MPEIREREMYGLVESLEYKK ; amyloid nucleation score = -0.147

The recorded amyloid nucleation score for entry RTALKYPVSYSRFGSFADES equals -0.73
